Sourced from patent US20090069370A1

Counter-ions that a name gives are not always drawn.
Item-by-item account of melting point

compound	melting point
CNC(=O)c1ccc(-c2ccc3c(c2)CCN([C@@H]2CCN(C(C)C)C2)C3=O)c(F)c1 (as salt: hydrochloride)	245 to 247 °C
O=C(NC1CCCC1)c1ccc(COc2ccc3c(c2)CCN(C2CCN(C4CCC4)CC2)C3=O)cc1 (as salt: hydrochloride)	289 to 291 °C
CC(C)N1CCC[C@@H](N2CCc3cc(-c4ccc(C(=O)N5CCCC5)cc4)ccc3C2=O)C1 (as salt: hydrochloride)	274 to 275 °C
O=C(c1ccc(-c2ccc3c(c2)CCN([C@@H]2CCN(CC4CC4)C2)C3=O)cc1)N1CCCC1 (as salt: hydrochloride)	287 to 288 °C
CCNC(=O)c1ccc(-c2ccc3c(c2)CCN([C@@H]2CCN(C(C)C)C2)C3=O)cc1 (as salt: hydrochloride)	> 270 °C
CNC(=O)c1ccc(-c2ccc3c(c2)CCN([C@@H]2CCN(C(C)C)C2)C3=O)cc1 (as salt: hydrochloride)	> 275 °C
CC(C)NC(=O)c1ccc(Oc2ccc3c(c2)CCN(C2CCN(C4CCC4)CC2)C3=O)cc1 (as salt: hydrochloride)	309 to 311 °C
N#Cc1ccc(-c2ccc3c(c2)CN(C2CCN(C4CCC4)CC2)C3=O)cc1 (as salt: hydrochloride)	320 °C (dec.)
O=C(O)c1ccc(Oc2ccc3c(c2)CCN([C@@H]2CCN(C4CCCC4)C2)C3=O)cc1	170 to 173 °C
O=C(c1ccc(-c2ccc3c(c2)CCN([C@@H]2CCN(Cc4ccoc4)C2)C3=O)cc1)N1CCCC1 (as salt: hydrochloride)	254 to 256 °C
CCNC(=O)c1ccc(Oc2ccc3c(c2)CCN([C@@H]2CCN(C4CCCC4)C2)C3=O)cc1 (as salt: hydrochloride)	178 to 180 °C
CNC(=O)c1ccc(-c2ccc3c(c2)CN([C@@H]2CCN(C4CCC4)C2)C3=O)cc1 (as salt: hydrochloride)	207 to 208 °C
O=C(c1cccc(-c2ccc3c(c2)CCN([C@@H]2CCN(C4CCC4)C2)C3=O)c1)N1CCCC1 (as salt: hydrochloride)	203 to 205 °C
O=C1NCCc2cc(-c3ccc4c(c3)CCN([C@@H]3CCN(C5CCC5)C3)C4=O)ccc21 (as salt: hydrochloride)	> 274 °C
CC(C)N1CCC(N2CCc3cc(-c4ccc(C(=O)N5CCCC5)cc4)ccc3C2=O)CC1 (as salt: hydrochloride)	> 300 °C
N#Cc1ccc(-c2ccc3c(c2)CN(C2CCN(C4CCCCC4)CC2)C3=O)cc1 (as salt: hydrochloride)	> 300 °C
O=C(c1ccc(-c2ccc3c(c2)CCN([C@@H]2CCN(C4CCC4)C2)C3=O)cc1Cl)N1CCCC1 (as salt: hydrochloride)	198 to 200 °C
CNC(=O)c1ccc(-c2ccc3c(c2)CCN([C@@H]2CCN(C4CCC4)C2)C3=O)c(F)c1 (as salt: hydrochloride)	220 to 221 °C
CCNC(=O)c1ccc(Oc2ccc3c(c2)CCN([C@@H]2CCN(C4CCC4)C2)C3=O)cc1 (as salt: hydrochloride)	153 to 154 °C
CCNC(=O)c1ccc(Oc2ccc3c(c2)CCN(C2CCN(C4CCC4)CC2)C3=O)cc1 (as salt: hydrochloride)	317 to 318 °C
O=C(c1ccc(-c2ccc3c(c2)CCN([C@@H]2CCN(Cc4cccs4)C2)C3=O)cc1)N1CCCC1 (as salt: hydrochloride)	249 to 250 °C
CN(C)C(=O)c1ccc(Oc2ccc3c(c2)CCN(C2CCN(C4CCC4)CC2)C3=O)cc1 (as salt: hydrochloride)	262 to 264 °C
O=C(NC1CCC1)c1ccc(-c2ccc3c(c2)CCN([C@@H]2CCN(C4CCC4)C2)C3=O)c(F)c1 (as salt: hydrochloride)	> 230 °C
